// data source = PubChem BioAssay (NCI)

Test system: OVCAR-3 ovarian
Experiment: NCI tumour cell line growth inhibition, 48 h
quantity kind: TGI

> print(dat)
                                    compound  experimental.target  value.observed
 1           O=c1c2c(oc3ccccc13)-c1ccccc1OC2      OVCAR-3 ovarian        > 100 µM
 2  O=C(O)c1cc([N+](=O)[O-])cc2c(=O)c3cnccc3[nH]c12      OVCAR-3 ovarian        > 100 µM
 3   Cc1cc(=O)[nH]c(-n2[nH]c(C)c(CCO)c2=O)n1      OVCAR-3 ovarian        > 100 µM
 4  O=[N+]([O-])c1cc(C(F)(F)F)cc([N+](=O)[O-])c1CCl      OVCAR-3 ovarian         10.5 µM
 5  O=[N+]([O-])O.[Cu+2].[NH-]CC[NH-].[NH-]CC[NH-]      OVCAR-3 ovarian         > 10 µM
 6  CC(C)(C)n1cc(-c2ccnc(NCCCNS(=O)(=O)c3ccc(C(F)(F)F)cc3)c2)c(-c2cccc(O)c2)n1      OVCAR-3 ovarian         3.84 µM
 7  CCS(CC)(CC)CC1CCCC2=CCC(P(=O)(c3ccccc3)c3ccccc3)CC21 (configuration not stated)      OVCAR-3 ovarian         30.5 µM
 8  CC[C@]1(Cc2ccc(OC)c(OC)c2)C=[N+]([O-])O[C@H](OC2CCCC2(c2ccccc2)c2ccccc2)[C@@H]1OC(=O)c1ccccc1 (some centres not stated)      OVCAR-3 ovarian         13.7 µM
 9  Cn1c2ccccc2c2c(-c3ccccc3)cc3c(c21)C(=O)C=CC3=O      OVCAR-3 ovarian         4.03 µM
10  OC1(c2cccs2)c2cccc(Cl)c2C(O)(c2cccs2)c2c(Cl)cccc21 (configuration not stated)      OVCAR-3 ovarian        > 100 µM
11  COc1cc2c(c(OC)c1OC)-c1ccc(SC)c(=O)cc1C(CO)C2 (configuration not stated)      OVCAR-3 ovarian        0.449 µM
12  N#Cc1c(N)nc(-c2ccc(Cl)cc2)c2c1-c1ccccc1S(=O)(=O)CC2      OVCAR-3 ovarian        > 100 µM
13  COc1ccc(-c2c[nH]c(C(=O)O)c2-c2cc(OC)c(OC)c(OC)c2)cc1      OVCAR-3 ovarian         8.05 µM
14                  CC(CCN)(CCN)[N+](=O)[O-]      OVCAR-3 ovarian        > 100 µM
15  O=c1[nH]c2cc(Cl)ccc2nc1/C(=N\O)C(O)c1cccc([N+](=O)[O-])c1 (configuration not stated)      OVCAR-3 ovarian        > 100 µM
16             CN1C(=Nc2ccccc2)SC1=Nc1ccccc1      OVCAR-3 ovarian        > 100 µM
17           COc1ccc(Br)c(N/N=C2\CCCNC2=O)c1      OVCAR-3 ovarian        > 100 µM
